# targetDesc: UniProtKB Q8TDU6
# Sequence (Q8TDU6 whole entry): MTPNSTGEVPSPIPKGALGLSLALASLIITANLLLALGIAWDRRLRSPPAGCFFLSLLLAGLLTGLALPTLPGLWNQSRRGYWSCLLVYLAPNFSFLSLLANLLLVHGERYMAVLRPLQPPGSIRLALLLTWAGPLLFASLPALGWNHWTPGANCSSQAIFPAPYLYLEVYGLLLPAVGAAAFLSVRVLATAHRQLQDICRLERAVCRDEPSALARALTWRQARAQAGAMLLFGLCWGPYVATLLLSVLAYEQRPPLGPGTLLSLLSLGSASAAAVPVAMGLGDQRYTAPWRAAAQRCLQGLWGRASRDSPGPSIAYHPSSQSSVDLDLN
# protocolText: cAMP production assay in HEK293-TGR5 cells
# testContext: HEK293 cells stably expressing human TGR5; 30 minutes stimulation; LANCE cAMP TR-FRET; read-out: cAMP Production in 293-TGR5 Cells EC50
# Description: HEK293 cells stably expressing TGR5 (HEK293-TGR5) were established by stably transfecting HEK-293 cells with an expression vector (pcDNA 3.1, Invetrogen) inserted with human TGR5 cDNA using Fugene6 (Roche, Indianapolis, Ind.) according to conventional methods. […] TR-FRET signal was detected using the Viewlux (Perkin Elmer Inc., Boston Mass.). EC50 values were determined using Graph Pad Prizm analysis (GraphPad Software, Inc).
// reported EC50 per item

>  <smi>
FC(F)(F)Oc1ccc2cc(CNCc3ccc(C(F)(F)F)cc3)c(-c3cccnc3)nc2c1

>  <EC50>
< 10 µM

$$$$

Ask: # lookup: EC50 of `COc1ccc2cc(NCc3ccc(C(F)(F)F)cc3)c(-c3ccsc3)nc2c1`
Result: > 10 µM

Ask: # lookup: EC50 of `COc1ccc2cc(C(=O)NCc3ccc(C(F)(F)F)cc3)c(-c3ccsc3)nc2c1`
Result: > 10 µM

Ask: # lookup: EC50 of `Oc1ccc2cc(CNCCc3ccc(Br)cc3)c(-c3cccs3)nc2c1`
Result: > 10 µM

Ask: # lookup: EC50 of `COc1ccc2cc(CCNCCc3ccc(Br)cc3)c(-c3ccsc3)nc2c1`
Result: > 10 µM
